# assayName: inhibitors of DENV2 cytopathic effect, primary screen, cell-based, plate reader, single concentration (AID 651640)
# experimentalParameters: DENV2-infected cells, cytopathic effect rescue, at 9.99 µM, hits give high values
Screen size: about 350,000 compounds; about 6,000 (1.7%) were called active. Inconclusive results (about 5%) are left out. Many of the other results were omitted from the sample, so actives are more common in it than they were.
Rule: CPE inhibition under 10% gives rule not met, otherwise rule met.

Check this compound for CPE inhibition at or above 10%: `C[C@@H]1CCCCO[C@@H](CN(C)CC2CCCCC2)[C@H](C)CN([C@H](C)CO)C(=O)c2cc(NC(=O)C3CCCCC3)ccc2O1`
rule not met

Can you check `CN1OC[C@@H]2CN(C(=O)C(C)(C)C)[C@H](c3ccc(-n4ccnc4)cc3)C[C@@H]21` next?
rule not met

Can you check `C[C@H]1CCCCO[C@H](CN(C)Cc2ccccc2)[C@@H](C)CN([C@@H](C)CO)C(=O)c2cc(NC(=O)c3ccccc3)ccc2O1` next?
rule met

Can you check `CN1OC[C@@H]2CN(C(=O)c3cccnc3)[C@H](c3ccc(N4CCCCC4)cc3)C[C@@H]21` next?
rule met

Can you check `COCC(=O)N1CC2(C1)CN(Cc1ccccc1F)[C@@H](CO)c1[nH]c3cc(OC)ccc3c12` next?
rule met

Can you check `C[C@@H]1CN([C@H](C)CO)C(=O)c2cc(NC(=O)C3CCCCC3)ccc2O[C@@H]1CN(C)CC1CCCCC1` next?
rule met

Can you check `CCC(=O)N1CC2(C1)CN(Cc1cc(F)ccc1F)[C@@H](CO)c1[nH]c3cc(OC)ccc3c12` next?
rule met

Can you check `O=C1CC2(CCCCC2)Oc2ccc(OCC(=O)N3CCOCC3)cc21` next?
rule not met

Can you check `COc1ccc2c3c([nH]c2c1)[C@@H](CO)N(Cc1cccc(F)c1)CC31CN(CC2CC2)C1` next?
rule not met

Can you check `C[C@@H]1CCCCO[C@H](CN(C)Cc2ccccc2)[C@@H](C)CN([C@H](C)CO)C(=O)c2cc(NC(=O)Cc3ccccc3)ccc2O1` next?
rule not met

Can you check `C[C@H](CO)N1C[C@H](C)[C@H](CN(C)Cc2ccccc2)OCCCC[C@H](C)Oc2ccc(NC(=O)c3ccccc3)cc2C1=O` next?
rule not met

Can you check `C[C@H](CO)N1C[C@H](C)[C@@H](CN(C)CC2CC2)OCCCC[C@H](C)Oc2ccc(NC(=O)Cc3ccccc3)cc2C1=O` next?
rule met

Can you check `CN(C)CC(=O)N1[C@H](C(=O)NC2CCC2)[C@@H](CO)[C@@H]2Cn3c(ccc(-c4ccc(F)cc4)c3=O)[C@@H]21` next?
rule not met

Can you check `C[C@H](CO)N1C[C@H](C)[C@@H](CN(C)Cc2ccc(C(=O)O)cc2)OCCCC[C@H](C)Oc2ccc(NC(=O)c3ccccc3)cc2C1=O` next?
rule not met

Can you check `COc1ccc2c3c([nH]c2c1)[C@@H](CO)N(Cc1ccccc1F)CC31CN(C(=O)C2CC2)C1` next?
rule not met

Can you check `C[C@H](CO)N1C[C@H](C)[C@H](CN(C)CC2CCCCC2)Oc2ccc(NC(=O)C3CCCCC3)cc2C1=O` next?
rule not met

Source listed as PubChem BioAssay AID651640.
